Cited source for all entries: ChEMBL document CHEMBL5108010

Test system: Quadruplex DNA
protocol_description: Binding affinity to G-quadruplex telomeric DNA F21T (5'-duplex GGG TTAGGG TTAGGG TTAGGG-3') (unknown origin) assessed as stabilization by measuring change in melting temperature at 10 uM in sodium buffer by FRET melting assay
Assay type: nucleic-acid assay
measure: ΔTm
Number plus unit, in that order.

Below: 3 compounds and their reported ΔTm.
## Input Item: O=C1c2ccc3c4c(ccc(c24)C(=O)N1CC(c1ccccn1)N1CCOCC1)C(=O)N(CC(c1ccccn1)N1CCOCC1)C3=O (stereo not drawn) Test system: Quadruplex DNA Read-out: ΔTm Value: ?
## Output 0.9 °C

## Input Then this compound: CC(CN1C(=O)c2ccc3c4c(ccc(c24)C1=O)C(=O)N(CC(C)N1CCN(C)CC1)C3=O)N1CCN(C)CC1 (stereo not drawn)
## Output 9.2 °C

## Input Then this compound: O=C1c2ccc3c4c(ccc(c24)C(=O)N1CCCN1CCOCC1)C(=O)N(CCCN1CCOCC1)C3=O
## Output -7 °C

Others:
## Input Item: C[n+]1ccc(N2C(=O)c3ccc4c5c(ccc(c35)C2=O)C(=O)N(c2cc[n+](C)cc2)C4=O)cc1 Test system: Quadruplex DNA Read-out: ΔTm Value: ?
## Output 0 °C

## Input Then this compound: C[n+]1cc(N2C(=O)c3ccc4c5c(ccc(c35)C2=O)C(=O)N(c2cc3ccccc3[n+](C)c2)C4=O)cc2ccccc21
## Output 0.4 °C

## Input Then this compound: CN1CCN(c2ccc(N3C(=O)c4ccc5c6c(ccc(c46)C3=O)C(=O)N(c3ccc(N4CCN(C)CC4)cc3)C5=O)cc2)CC1
## Output 1.3 °C

## Input Then this compound: CN1CCN(c2cccc(N3C(=O)c4ccc5c6c(ccc(c46)C3=O)C(=O)N(c3cccc(N4CCN(C)CC4)c3)C5=O)c2)CC1
## Output 5.8 °C

## Input Then this compound: CN1CCN(C(C)(C)CN2C(=O)c3ccc4c5c(ccc(c35)C2=O)C(=O)N(CC(C)(C)N2CCN(C)CC2)C4=O)CC1
## Output 10.2 °C
